# assay info: folding stability dG unfold (combined trypsin and chymotrypsin); higher = more stable
measure: folding stability dG unfold (kcal/mol)
// note: answer is a bare numeric in kcal/mol

{"columns": ["entry sequence", "unit label", "folding stability dG unfold"],
 "data": [
  ["SAGGSAGDPSLPQPQYIAFLLVTKPGGVEEPLEVEVKTEEEAEKIAQEVRDAGYEVELELRPAALLSAGGSA [r15_906_JUSTAS]", "kcal/mol", 1.44]
]}

From here, focus on the item given below.
[in] What measured folding stability dG unfold goes with SAGGSAGGSAGGMPIRVYRDPSNPDVVYVETPESTRDVSLEEVERLPVDEIRSAAEVAAESAGGSAGGSAGG [r17_88_JUSTAS] ?
[out] -0.206

----------
# assay info: folding stability dG unfold (combined trypsin and chymotrypsin); higher = more stable
Label yes (1) when folding stability dG unfold >= 0.7 kcal/mol; otherwise no (0).

Below are worked cases with known answers.
{"columns": ["entry sequence", "class label"],
 "data": [
  ["SAGAGTVASPEEAEELVEELRAALPPEATITRDPTPEGGVRFTVRLPGEGRVLEMEFDPARDTTARRPESAG [r5_358_JUSTAS]", "no (0)"],
  ["SAGGSAGGSAGELSLEEIKKLAPDETAVVKLPPSPETIVITVSTNPNGTLKIEIKRYPPGSAGGSAGGSAGG [r11_13_JUSTAS]", "no (0)"],
  ["SDKIKNMTIEEILKKLPKGVKVGEKVEIEIDGKKITITKVEVVKDKNGKEIKRIYIEVEIDGEKIIIEIESA [r9_279_TrROS_Hall]", "yes (1)"]
]}

Kindly review the next sequence as well.
[in] folding stability dG unfold >= 0.7 kcal/mol for SAGGKEKVKIKIKIIDKKTNKVYEAEATFDKETGKVTITFPDGSKITFDLKTNKLYIEKDGKIIEIESAGGS [r16_743_TrROS_Hall] ?
[out] yes (1)

----------
# assay info: folding stability dG unfold (combined trypsin and chymotrypsin); higher = more stable
measure: folding stability dG unfold

Record excerpt, results attached:
{"columns": ["entry sequence", "folding stability dG unfold"],
 "data": [
  ["SAGGEIKIKKSKDGKTLYIEIKIKAGEKVKLKLTITLPNGKKAEITSVEIIEKNGELYIKVEIKIKDSAGGS [r16_499_TrROS_Hall]", "4.42 kcal/mol"],
  ["SAMSVTISFDPKGPGGTLTITADPNSPQIEKFINELKKKLNLDIKSYTKTILPNGTVKVTLTYSKINLPSAG [r14_655_JUSTAS]", "4.51 kcal/mol"],
  ["SAGGSAMTIYIKNKDGYIIKIEITKIEEIGPNYIKIKMKMEIINKNGEKKEIELELIFKVKNPEELSAGGSA [r15_1035_TrROS_Hall]", "3.79 kcal/mol"],
  ["SAGGMTIITTTFTLKLPSNGKVVTVTKTYNLSPEEGKKEAEKIAKEIAEELKEPTEILEIKITYYPESAGGS [r16_140_JUSTAS]", "1.7 kcal/mol"],
  ["SASLANGGLRVDVELEFDPETHEIRVKRLTLYRGDEPVATADATIAVPPAAPPPPPVVVLDPDVPFDNESAG [r14_571_TrMRF]", "1.28 kcal/mol"],
  ["SAGMTLVAVNRETGEVNVIELDPEDPELVTVTYPNGEKETFPLAEIAERLGLPVSLLLNDYDIERIYGSSAG [r5_156_TrMRF]", "1.71 kcal/mol"],
  ["SAGGSAGGSAGTVIYIDPETDMARVLVPDADGVLVDERAVPPDQLPDVLSQGNFTVVPAPSAGGSAGGSAGG [r11_159_TrMRF]", "-0.943 kcal/mol"],
  ["SAGGSAMSRTITVEITDPRNGKKLKNVVIDVPEDEDISDEEILKKIGIPEKEAKNIKVSKTTEELESAGGSA [r15_665_JUSTAS]", "0.169 kcal/mol"]
]}

[in] What measured folding stability dG unfold goes with SAGGMPDITEVELLDVEYDPETGTYRFRVKVKLKDGTEREVEIPFVDEDGDFGIEEILKAAEELVEESAGGS [r16_221_TrMRF] ?
[out] 3.66 kcal/mol

[in] Can you check SAGGTKTINIKNMPPNDPERMVRTARHLLKELKQKGPGKTITIHMDNPWAREVAEYLKKEGIPIEVHSAGGS [r16_450_TrROS] next?
[out] 0.947 kcal/mol

[in] Can you check SAGGSAGGSGLPIVVQEDGTLVLRREGDGTAAFDVVPLEEFERLPEEFLESLPASALPDPLPLSAGGSAGGS [r12_793_JUSTAS] next?
[out] 0.882 kcal/mol

[in] Can you check SAGGSAGGSAGMRLLVEKPEGPVPTVTEVEVPLPEGDKARLEEVKEELKKKGYKKVIFLDSAGGSAGGSAGG [r11_196_JUSTAS] next?
[out] < -1 kcal/mol
